- EXPERIMENTAL_PROTOCOL: solvent given as SMILES
- REPORTED_CONDITIONS: in C1CCCCC1
// label = t if emission maximum is not less than 400 nm, otherwise f

COMPOUND	CLASS_NAME
c1cc2c3c(c1)OCCCCCCCOc1cccc(c1-c1c4ccccc4c-3c3ccccc13)OCCCCCCCO2	t
CCC(C)(C)c1ccc(-c2ccc3c(c2)C(CCOC)(CCOC)c2cc(C(C)(C)CC)ccc2-3)cc1	f
Cc1ccc(C)cc1	f
O=P1(c2ccccc2)C2=C(c3ccccc31)S(=O)(=O)c1ccccc12 (centres undefined)	t
CN(C)c1ccc(-c2ccc(-c3cc(N4CCCCC4)c(C#N)c4c3-c3ccccc3CC4)s2)cc1	t
CN(C)c1ccc(C(=O)Nc2ccc(Cl)cc2)cc1	t
Cn1nc(-c2ccccc2)c2nc3cc(F)ccc3nc21	t
CCCCCCCCCCCCCCCCOC(=O)c1ccc(N(c2ccccc2)c2ccccc2)cc1	f
CN(C)CCN(Cc1c2ccccc2c(CN(CCN(C)C)c2ccc([N+](=O)[O-])cc2[N+](=O)[O-])c2ccccc12)c1ccc([N+](=O)[O-])cc1[N+](=O)[O-]	t
